Numbers sourced from ChEMBL document CHEMBL1129338.

- System name: Acyl-CoA:cholesterol acyltransferase (Oryctolagus cuniculus, UniProt Q95214)
- Sequence (Q95214 whole entry): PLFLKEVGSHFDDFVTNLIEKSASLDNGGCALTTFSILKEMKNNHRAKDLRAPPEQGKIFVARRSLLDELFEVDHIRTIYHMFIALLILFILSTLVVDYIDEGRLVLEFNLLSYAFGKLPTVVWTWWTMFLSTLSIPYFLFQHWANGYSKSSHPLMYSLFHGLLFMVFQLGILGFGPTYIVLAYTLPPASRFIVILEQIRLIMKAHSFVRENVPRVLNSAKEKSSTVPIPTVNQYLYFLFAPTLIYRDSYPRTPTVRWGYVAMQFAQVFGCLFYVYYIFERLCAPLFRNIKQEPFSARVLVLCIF
Measured property: IC50 (nM)

Molecule	Measured number
CCCCCCCCCCCCn1nnc(C(C(=O)Nc2c(OC)cc(OC)cc2OC)c2ccccc2)n1 (stereo unspecified)	8

----------
Readings of pIC50 for the listed compounds
- System name: Sterol O-acyltransferase 1 (Rattus norvegicus, UniProt O70536)
- Sequence (O70536 whole entry): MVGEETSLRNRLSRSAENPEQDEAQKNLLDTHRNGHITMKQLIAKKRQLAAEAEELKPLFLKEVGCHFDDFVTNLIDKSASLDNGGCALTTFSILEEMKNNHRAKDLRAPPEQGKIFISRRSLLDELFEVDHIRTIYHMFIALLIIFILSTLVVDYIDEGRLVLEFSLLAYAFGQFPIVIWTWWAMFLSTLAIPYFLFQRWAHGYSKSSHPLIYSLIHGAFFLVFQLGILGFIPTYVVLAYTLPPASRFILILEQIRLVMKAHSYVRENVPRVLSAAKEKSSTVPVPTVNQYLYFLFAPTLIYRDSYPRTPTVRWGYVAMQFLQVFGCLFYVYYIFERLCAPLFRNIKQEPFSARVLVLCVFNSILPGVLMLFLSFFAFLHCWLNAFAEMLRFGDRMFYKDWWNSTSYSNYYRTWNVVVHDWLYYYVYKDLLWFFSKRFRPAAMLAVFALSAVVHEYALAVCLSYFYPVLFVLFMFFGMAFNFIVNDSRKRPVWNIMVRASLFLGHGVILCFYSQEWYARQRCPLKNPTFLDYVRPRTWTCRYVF
- Assay details: In vitro inhibitory activity against acyl coenzyme A:cholesterol acyltransferase 1 of liver microsomes isolated from cholesterol-fed rats.
pIC50: −log10 of the molar value.

Compound	Reported relation	pIC50
CCCCCCCCCCCCn1nnc(C(C(=O)NC2CC2)c2ccccc2)n1 (centres undefined)	=	6.61
C=CCCCCCCCCCn1nnc(C(C(=O)Nc2c(OC)cc(OC)cc2OC)c2ccccc2)n1 (centres undefined)	=	7.27
CCCCCCCCCCCCn1nnc(C(C(=O)Nc2c(OC)cc(OC)cc2OC)c2ccccc2)n1 (centres undefined)	=	7.64
CCCCCCCCCCCCn1nnc(C(C(=O)Nc2c(C)nn(C)c2C)c2ccccc2)n1 (centres undefined)	=	7.89
CCCCCCCCCCCCn1nnc(C(C(=O)Nc2c(OC)cc(OC)cc2OC)c2ccc(-c3ccccc3)cc2)n1 (centres undefined)	=	6.66
CCCCCCCCCCCCn1nnc(C(C#N)C(=O)Nc2c(C(C)C)cccc2C(C)C)n1 (centres undefined)	<	5.30
CCCCCCCCCCCCn1nnc(C(C(=O)Nc2c(OC)cc(OC)cc2OC)c2ccccn2)n1 (centres undefined)	=	7.23
CCCCCCCCCCCCc1nnn(C(C(=O)Nc2c(OC)cc(OC)cc2OC)c2ccccc2)n1 (centres undefined)	=	7.68
CCCCCCCCCCCCn1nnc(C(C(=O)Nc2ccccc2)c2ccccc2)n1 (centres undefined)	=	6.32

----------
Readings of inhibition for the listed compounds
- System name: Sterol O-acyltransferase 1 (Mus musculus) (UniProt Q61263)
- Sequence (Q61263 whole entry): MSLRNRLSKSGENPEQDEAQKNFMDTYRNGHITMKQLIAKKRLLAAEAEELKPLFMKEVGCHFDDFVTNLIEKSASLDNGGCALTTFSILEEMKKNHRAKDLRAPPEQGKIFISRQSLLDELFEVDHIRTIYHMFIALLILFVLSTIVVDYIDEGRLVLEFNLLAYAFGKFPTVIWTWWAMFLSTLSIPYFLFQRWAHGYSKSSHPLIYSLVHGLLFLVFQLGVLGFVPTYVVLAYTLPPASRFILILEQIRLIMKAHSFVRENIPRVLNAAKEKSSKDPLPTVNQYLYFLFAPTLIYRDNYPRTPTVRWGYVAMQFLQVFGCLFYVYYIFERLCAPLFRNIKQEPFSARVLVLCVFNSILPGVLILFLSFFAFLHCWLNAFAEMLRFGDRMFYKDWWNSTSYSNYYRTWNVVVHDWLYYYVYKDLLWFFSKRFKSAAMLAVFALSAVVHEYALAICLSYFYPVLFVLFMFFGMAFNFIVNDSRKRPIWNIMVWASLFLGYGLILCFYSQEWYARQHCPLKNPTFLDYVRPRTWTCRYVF
- Assay details: In vitro inhibitory activity against acyl coenzyme A:cholesterol acyltransferase 1 in cell culture assay using murine IC-21 macrophages at 0.1 uM
Measured property: inhibition (%)

Compound	System name	Measured property	Measured number
CCCCCCCCCCCCn1nnc(C(C(=O)Nc2ccccc2)c2ccccc2)n1 (centres undefined)	Sterol O-acyltransferase 1 (Mus musculus) (UniProt Q61263)	inhibition	46
CCCCCCCCCCCCn1nnc(C(C(=O)Nc2c(C(C)C)cccc2C(C)C)c2ccccc2)n1 (centres undefined)	Sterol O-acyltransferase 1 (Mus musculus) (UniProt Q61263)	inhibition	47
CCCCCCCCCCCCn1nnc(C(C(=O)Nc2ccc3c(C)cc(C)nc3n2)c2ccccc2)n1 (centres undefined)	Sterol O-acyltransferase 1 (Mus musculus) (UniProt Q61263)	inhibition	49
CCCCCCCCCCCCc1nnn(C(C(=O)Nc2c(OC)cc(OC)cc2OC)c2ccccc2)n1 (centres undefined)	Sterol O-acyltransferase 1 (Mus musculus) (UniProt Q61263)	inhibition	52
CCCCCCCCCCCCn1nnc(C(C(=O)Nc2c(OC)cc(OC)cc2OC)c2ccc(F)cc2)n1 (centres undefined)	Sterol O-acyltransferase 1 (Mus musculus) (UniProt Q61263)	inhibition	46
CCCCCCCCCCCCn1nnc(C(C(=O)Nc2c(C(C)C)cccc2C(C)C)c2ccccn2)n1 (centres undefined)	Sterol O-acyltransferase 1 (Mus musculus) (UniProt Q61263)	inhibition	24
CCCCCCCCCCCCn1nnc(C(C(=O)Nc2c(OC)cc(OC)cc2OC)c2ccc(-c3ccccc3)cc2)n1 (centres undefined)	Sterol O-acyltransferase 1 (Mus musculus) (UniProt Q61263)	inhibition	10
CCCCCCCCCCCCn1nnc(C(C(=O)Nc2ccc(F)cc2F)c2ccccc2)n1 (centres undefined)	Sterol O-acyltransferase 1 (Mus musculus) (UniProt Q61263)	inhibition	1
CCCCCCCCCCCCn1nnc(C(C(=O)Nc2c(C(C)C)cccc2C(C)C)c2nnn[nH]2)n1 (centres undefined)	Sterol O-acyltransferase 1 (Mus musculus) (UniProt Q61263)	inhibition	8
